- Measurement Parameters: buffer; pH 7.4; 200.0 µM

Molecule: O=C(C1CCN(S(=O)(=O)c2cccs2)CC1)N1CCCCC1
Quantity Unit: µg/mL
Result Qualifier: >
solubility kinetic: 51.4
--
Molecule: CC(NC(=O)COC(=O)c1cc(S(=O)(=O)N2CCOCC2)ccc1F)c1ccccc1 (stereo not given)
Quantity Unit: µg/mL
Result Qualifier: >
solubility kinetic: 67.6
--
Molecule: CS(=O)(=O)Nc1cccc(-c2cn3c(n2)SCC3)c1
Quantity Unit: µg/mL
Result Qualifier: =
solubility kinetic: 40
--
Molecule: Cc1cc(OCC(=O)N2CCCN(C)CC2)ccc1Cl
Quantity Unit: µg/mL
Result Qualifier: >
solubility kinetic: 44.5
--
Molecule: O=C(CSc1nc2ccccc2c(=O)[nH]1)Nc1ccc([N+](=O)[O-])cc1
Quantity Unit: µg/mL
Result Qualifier: =
solubility kinetic: 5
--
Molecule: CCN(CC)CCOC(=O)/C=C/c1ccccc1.Cl
Quantity Unit: µg/mL
Result Qualifier: =
solubility kinetic: 38.5
--
Molecule: O=c1[nH]cnc2sc3c(c12)CCCCC3
Quantity Unit: µg/mL
Result Qualifier: =
solubility kinetic: 19.9
--
Molecule: C=CCNC(=O)c1ccc(N(Cc2ccccc2)S(C)(=O)=O)cc1
Quantity Unit: µg/mL
Result Qualifier: >
solubility kinetic: 51.7
--
Molecule: O=C1CC(=O)N(c2ccc(Cl)cc2)C(=O)N1
Quantity Unit: µg/mL
Result Qualifier: >
solubility kinetic: 35.8
--
Molecule: O=C(Nc1ccc(Br)cn1)c1cccc(S(=O)(=O)N2CCCC2)c1
Quantity Unit: µg/mL
Result Qualifier: =
solubility kinetic: 5.7
--
Molecule: O=C(c1ccc(F)cc1)c1ccc(N2CCCCC2)cc1
Quantity Unit: µg/mL
Result Qualifier: =
solubility kinetic: 3.6
--
Molecule: COc1ccc(NC(=S)NC(=O)C2CCCCC2)cc1
Quantity Unit: µg/mL
Result Qualifier: <
solubility kinetic: 0.3
--
Molecule: O=C(NCCc1cccs1)c1ccc(Cl)cc1
Quantity Unit: µg/mL
Result Qualifier: >
solubility kinetic: 39.9
--
Molecule: Cc1cccc(NC(=O)c2cccc(C(=O)Nc3cccc(C)c3C)n2)c1C
Quantity Unit: µg/mL
Result Qualifier: =
solubility kinetic: 1.1
--
Molecule: O=C(Nc1ncccn1)c1ccc([N+](=O)[O-])cc1[N+](=O)[O-]
Quantity Unit: µg/mL
Result Qualifier: =
solubility kinetic: 38.7
--
Molecule: OC(C#CCN1CCCC1)(c1ccccc1)c1cccnc1 (stereo not given)
Quantity Unit: µg/mL
Result Qualifier: >
solubility kinetic: 43.9
--
Molecule: CC1CC(C)CN(C(=O)COC(=O)Cc2ccc(Cl)cc2)C1 (stereo not given)
Quantity Unit: µg/mL
Result Qualifier: =
solubility kinetic: 41.3
--
Molecule: O=C(COc1ccc(F)cc1Cl)NC1CCCCCC1
Quantity Unit: µg/mL
Result Qualifier: =
solubility kinetic: 28.3
--
Molecule: N#Cc1ccccc1S(=O)(=O)Nc1ccc2c(c1)C(=O)OC2
Quantity Unit: µg/mL
Result Qualifier: =
solubility kinetic: 43.4
--
Molecule: O=C(O)CC(Sc1n[nH]c(=S)s1)C(=O)O (stereo not given)
Quantity Unit: µg/mL
Result Qualifier: >
solubility kinetic: 39.9
--
Molecule: O=S(=O)(NC1CCCCC1)c1ccc(N2CCOCC2)nc1
Quantity Unit: µg/mL
Result Qualifier: >
solubility kinetic: 48.8
--
Molecule: O=C(O)CC1SC(=O)N(CC(=O)c2ccccc2)C1=O (stereo not given)
Quantity Unit: µg/mL
Result Qualifier: >
solubility kinetic: 44
--
Molecule: CCOP(=O)(OCC)C(Nc1ccccc1)c1ccco1 (stereo not given)
Quantity Unit: µg/mL
Result Qualifier: >
solubility kinetic: 46.4
--
Molecule: N#Cc1sc(NCc2cccc(Cl)c2)nc1Cl
Quantity Unit: µg/mL
Result Qualifier: =
solubility kinetic: 2.4
--
Molecule: O=C(Nc1ccc(F)c([N+](=O)[O-])c1)C1CCCO1 (stereo not given)
Quantity Unit: µg/mL
Result Qualifier: >
solubility kinetic: 38.1
